Test system: Plasmodium falciparum
ASSAY_METHOD_TEXT: microbe, parasite or virus in culture
STUDY_CONDITIONS: SKF58
Criterion: IC50 strictly less than 200 nM. Met: 1 (yes). Not met: 0 (no).

Here's what some known entries look like.
C[C@H]1[C@H](OC(=O)CCC(=O)O)O[C@@H]2O[C@@]3(C)CC[C@H]4[C@H](C)CC[C@@H]1[C@@]24OO3 [ARTESUNATE] : 1 (yes)
Cn1cc2c3cc(Br)ccc3nc-2c2cc(Cl)ccc21 : 1 (yes)
Cn1cc2c3ccc4ccccc4c3nc-2c2cc(Cl)ccc21 : 1 (yes)
Cn1cc2c3cc(Br)ccc3nc-2c2cc(C(F)(F)F)ccc21 : 0 (no)
Cc1cccc2c3nc4ccccc4c-3cn(C)c12 : 0 (no)

Req: is_below(IC50, 200 nM) for `Cn1cc2c3cc(Br)ccc3nc-2c2cc(Cl)cc(F)c21` ?
Resp: 0 (no)

Req: is_below(IC50, 200 nM) for `Cn1cc2c3cc(Br)ccc3nc-2c2ccc(F)cc21` ?
Resp: 1 (yes)

----------
ASSAY_METHOD_TEXT: Selectivity index, ratio of IC50 for human MRC5 cells to IC50 for […]
Format: toxicity, cell-based
STUDY_CONDITIONS: read-out: Ratio IC50
MEASUREMENT_KIND: selectivity ratio

Req: Indicate its recorded selectivity ratio; the molecule in question is `Cn1cc2c3cc(Br)ccc3nc-2c2cc(Cl)ccc21`
Resp: > 796

Req: Indicate its recorded selectivity ratio; the molecule in question is `Cn1cc2c3cc(Br)ccc3nc-2c2cc(Cl)cc(F)c21`
Resp: > 181

Req: Indicate its recorded selectivity ratio; the molecule in question is `Cn1cc2c3cc(Br)ccc3nc-2c2cc(C(F)(F)F)ccc21`
Resp: > 228

Req: Indicate its recorded selectivity ratio; the molecule in question is `Cn1cc2c3cc(Br)ccc3nc-2c2ccc(F)c(F)c21`
Resp: > 248

----------
Test system: Plasmodium falciparum
ASSAY_METHOD_TEXT: microbe, parasite or virus in culture
STUDY_CONDITIONS: SKF58
MEASUREMENT_KIND: pIC50
// scale note: pIC50 = -log10(conc_M); give the bare number

Req: Indicate its recorded pIC50; the compound in question is `Cn1cc2c3cc(Br)ccc3nc-2c2ccc(F)c(F)c21`
Resp: 5.01

----------
Some molecules, each annotated with its measured pIC50.
Tested on: Plasmodium falciparum
ASSAY_METHOD_TEXT: microbe, parasite or virus in culture
STUDY_CONDITIONS: SKF58
// scale note: pIC50 = -log10(conc_M); give the bare number

Recorded results for 2 molecules are shown here.
Cn1cc2c3ccccc3nc-2c2cc(Cl)ccc21 : 6.64
Cn1cc2c3cc(Cl)ccc3nc-2c2cc(Cl)ccc21 : 6.89

# evaluate next
Req: Indicate its recorded pIC50; the molecule in question is `Cn1cc2c3cc(Br)ccc3nc-2c2cc(F)ccc21`
Resp: 6.88
